Here, each record is paired with measured pIC50 data.
Tested on: human tumour cell lines (HepG2 and Jurkat)
test.details: MTT assay, summary over the tested human tumour cell lines
Format: cell-based
measurement.parameters: summary over HepG2 and Jurkat cells
pIC50: −log10 of the molar value.
measured.parameter: pIC50

- CCCC(CCC)C(=O)N/N=C1\C(=O)Nc2ccc(Cl)cc21: 5.15 to 5.52
- O=C1C(=O)N(Cc2ccccc2)c2ccccc21: 5.15 to 5.52
- CCCC(CCC)C(=O)N/N=C1\C(=O)Nc2ccccc21: 5.15 to 5.52
- CCCC(CCC)C(=O)N/N=C1\C(=O)N(C)c2ccccc21: 5.15 to 5.52
- CN1C(=O)C(=O)c2ccccc21: 5.15 to 5.52
- O=c1[nH]cc(F)c(=O)[nH]1 [Compound 5-FU, 5-Fluorouracil, reference compound]: 4.30 to 4.49
